# reported growth; entries follow
Test system: EKVX NSCLC
Assay: NCI-60 one-dose screen, 48 h (100 = growth as untreated, 0 = no growth, -100 = all killed)
Settings: 10 µM
Compounds without any hit were thinned out: in the full panel of roughly 83,000, 20% have a hit.
RECORDED METRIC: growth (%)

| MOLECULE | RECORDED METRIC | NUMERIC RESULT |
| --- | --- | --- |
| O=C(Nc1ccc(OCC(=O)c2ccccc2)cc1)Nc1ccc(Cl)c(C(F)(F)F)c1 | growth | 17.2 |
| COc1ccc(-c2c(N)c(=O)n(C)c3ccccc23)cc1 | growth | 52.4 |
| N#Cc1ccc(-c2nn(-c3ccc(C(=O)O)cc3)cc2CNc2ccc(Cl)cc2)cc1 | growth | 67.8 |
| O=C(O)CCCCCCCCCCN1C(=O)/C(=C/c2cnc(-c3ccc(Cl)cc3)s2)SC1=S | growth | -12.5 |
| O=C(N/C(=C1/OCCN1Cc1ccccc1)[P+](c1ccccc1)(c1ccccc1)c1ccccc1)c1ccccc1 | growth | 14.6 |
| COc1ccc2[nH]c(=O)c(CSc3nccc(-c4ccc(Cl)cc4)n3)cc2c1 | growth | 7.4 |
| CC(=O)NNc1ccc2nnc(-c3ccc(Br)cc3)n2n1 | growth | 81.7 |
| COc1ccc([C@H]2C(C(=O)c3ccc(Cl)cc3)C3(N[C@@H]2c2ccccc2)C(=O)Nc2ccc(Cl)cc23)cc1 (some centres undefined) | growth | 4.5 |
| Cc1ccc(CSc2nc(Cl)c(C#N)c(-c3ccc(F)cc3)n2)cc1 | growth | 79.6 |
| COC1=C[C@]23CCC(=O)N2CCc2cc4c(cc2[C@@H]3[C@@H]1OC(=O)CCCC(C)C)OCO4 | growth | 80.4 |
| CN(C)c1cccc2c(S(=O)(=O)Nc3cccc(-c4csc(NC(=O)CCCCCN5CCN(c6cc7c(cc6F)C(=O)N(C6CCC(=O)NC6=O)C7=O)CC5)n4)c3)cccc12 (centres undefined) | growth | 80.8 |
| C=C1CCC2C3(C)COC(c4cccc(F)c4)OC3CCC2(C)C1CC(O)C1=CCOC1=O (centres undefined) | growth | 87.9 |
| CC(=O)Nc1nc(-c2ccc(N3CCN(C)CC3)c(NS(=O)(=O)c3ccc(C(F)(F)F)cc3)c2)cs1 | growth | 72.2 |
| O=C(Nc1ccc(OCc2ccccc2)cc1)Nc1ccc(Cl)c(C(F)(F)F)c1 | growth | 5.04 |
| CC(C)CCSc1nc(NC2CC2)c(C#N)c(-c2ccc(C(C)C)cc2)n1 | growth | 96.5 |
| CC1(C)[C@@H](NCO)CC[C@]2(C)[C@H]3C(=O)C=C4[C@@H]5C[C@](C)(CO)CC[C@]5(C)CC[C@@]4(C)[C@]3(C)CC[C@@H]12 | growth | 75.5 |
| COc1ccc2[nH]cc(/C=N/Nc3cccc(Cl)n3)c2c1 | growth | 44.2 |
| COC(=O)C(Cc1ccc(O)c(O)c1)NC(=O)C(CSC/C=C(\C)CCCC(C)CCCC(C)CCCC(C)C)NC(C)=O (centres undefined) | growth | 47 |
| Cc1noc2c(Cc3ccccc3)nn(CC(=O)N/N=C/c3ccc(Cl)cc3)c(=O)c12 | growth | 72.9 |

Source listed as PubChem BioAssay (NCI).
